# credit: PubChem BioAssay (NCATS)

- Test system: CP203
- PROCEDURE_DETAILS: qHTS profiling for inhibitors of Plasmodium falciparum proliferation (AID 504749); further: nearly all actives have a fitted effect of over 60% in size
- CONDITION_CONTEXT: P. falciparum in erythrocytes, SYBR Green DNA, 72 h; series mostly up to 28.7 µM
Records with an inconclusive call do not appear. The source made the active and inactive calls. The call rests on the fitted dose curve; in most records, active means well fitted inhibition curve with a large enough effect; inconclusive means small, poorly fitted or top-dose-only effect; inactive means flat fitted curve, though single readings scatter.
Classes used: active, inactive

{"columns": ["MOLECULE", "TESTED_TARGET", "DISCRETE_LABEL"],
 "data": [
  ["CC12CCC3C4CCC(=O)C(O)=C4CCC3C1CCC2OC(=O)CCC1CCCC1 (stereo unspecified)", "CP203", "inactive"],
  ["NC(Cc1ccc(Oc2cc(I)c(O)c(I)c2)c(I)c1)C(=O)O (stereo unspecified)", "CP203", "inactive"],
  ["C[C@]12C=CC(=O)C=C1CC[C@@H]1C2CC[C@]2(C)OC(=O)CCC12 (stereo partly specified)", "CP203", "inactive"],
  ["C=C1CC2C(CC[C@]3(C)C(=O)CCC23)[C@]2(C)C=CC(=O)C=C12 (stereo partly specified)", "CP203", "inactive"],
  ["CC(Cc1ccccc1)N(C)C (stereo unspecified)", "CP203", "inactive"],
  ["COC(C(=O)C(O)C(C)O)C1Cc2cc3cc(OC4CC(OC5CC(O)C(OC)C(C)O5)C(OC(C)=O)C(C)O4)c(C)c(O)c3c(O)c2C(=O)C1OC1CC(OC2CC(OC3CC(C)(O)C(OC(C)=O)C(C)O3)C(O)C(C)O2)C(O)C(C)O1 (stereo unspecified)", "CP203", "active"]
]}

###

- TESTED_TARGET: Retinoic acid receptor RXR-alpha (Homo sapiens) (UniProt P19793)
- Sequence (P19793 whole entry, looked up): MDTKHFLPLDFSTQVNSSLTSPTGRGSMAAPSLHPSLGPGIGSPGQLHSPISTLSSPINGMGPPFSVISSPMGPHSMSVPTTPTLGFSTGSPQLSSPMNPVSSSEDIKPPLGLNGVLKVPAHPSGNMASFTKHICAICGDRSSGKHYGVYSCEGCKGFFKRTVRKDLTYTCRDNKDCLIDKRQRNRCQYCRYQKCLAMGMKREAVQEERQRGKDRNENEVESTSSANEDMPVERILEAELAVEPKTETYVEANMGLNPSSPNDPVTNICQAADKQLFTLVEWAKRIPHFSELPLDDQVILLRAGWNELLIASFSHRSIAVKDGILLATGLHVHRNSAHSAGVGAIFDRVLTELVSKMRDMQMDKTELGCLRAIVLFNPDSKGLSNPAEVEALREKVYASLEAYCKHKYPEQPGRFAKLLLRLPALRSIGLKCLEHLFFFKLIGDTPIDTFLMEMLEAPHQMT
- PROCEDURE_DETAILS: qHTS assay for small molecule agonists of retinoid X receptor alpha signaling (AID 588544)
- CONDITION_CONTEXT: HEK293T RXRa-UAS-bla, beta-lactamase reporter, 18 h; series mostly up to 76.7 µM
Inconclusive results are not listed. Calls of active or inactive are those of the source. The call rests on the fitted dose curve.
Classes used: active, inactive

{"columns": ["COMPOUND", "DISCRETE_LABEL"],
 "data": [
  ["CC(=NC#N)N(C)Cc1ccc(Cl)nc1", "inactive"],
  ["c1ccc2cc3c(cc2c1)-c1cccc2cccc-3c12", "active"],
  ["CC1(C)C(C(=O)OC(C#N)c2cccc(Oc3ccccc3)c2)C1(C)C (configuration not stated)", "inactive"],
  ["CCOP(=O)(OCC)OC(Cl)C(Cl)(Cl)Cl (configuration not stated)", "inactive"],
  ["CCC(C)Nc1c([N+](=O)[O-])cc(C(C)(C)C)cc1[N+](=O)[O-] (configuration not stated)", "inactive"],
  ["CCSCCSP(=O)(OC)OC", "inactive"],
  ["COc1nc(C)nc(NC(=O)NS(=O)(=O)c2ccccc2CCC(F)(F)F)n1", "inactive"],
  ["O=C(O)C1C(C(=O)O)C2(Cl)C(Cl)=C(Cl)C1(Cl)C2(Cl)Cl (configuration not stated)", "inactive"],
  ["CNC(=O)O/N=C/C(C)(C)S(C)(=O)=O", "inactive"],
  ["O=C(NC(=O)c1c(F)cccc1F)Nc1ccc(OC(F)(F)C(F)OC(F)(F)F)c(Cl)c1 (configuration not stated)", "inactive"],
  ["Brc1ccc(Oc2ccccc2)cc1", "inactive"],
  ["CC1(C)CC/C(=C\\c2ccc(Cl)cc2)C1(O)Cn1cncn1 (configuration not stated)", "inactive"]
]}
